Catalogue of HDAC6 selectivity (fold) values
Biological target: human recombinant HDAC6 (Homo sapiens, UniProt Q9UBN7)
Construct: purchased Calbiochem Inc. 382180
Sequence (Q9UBN7 whole entry): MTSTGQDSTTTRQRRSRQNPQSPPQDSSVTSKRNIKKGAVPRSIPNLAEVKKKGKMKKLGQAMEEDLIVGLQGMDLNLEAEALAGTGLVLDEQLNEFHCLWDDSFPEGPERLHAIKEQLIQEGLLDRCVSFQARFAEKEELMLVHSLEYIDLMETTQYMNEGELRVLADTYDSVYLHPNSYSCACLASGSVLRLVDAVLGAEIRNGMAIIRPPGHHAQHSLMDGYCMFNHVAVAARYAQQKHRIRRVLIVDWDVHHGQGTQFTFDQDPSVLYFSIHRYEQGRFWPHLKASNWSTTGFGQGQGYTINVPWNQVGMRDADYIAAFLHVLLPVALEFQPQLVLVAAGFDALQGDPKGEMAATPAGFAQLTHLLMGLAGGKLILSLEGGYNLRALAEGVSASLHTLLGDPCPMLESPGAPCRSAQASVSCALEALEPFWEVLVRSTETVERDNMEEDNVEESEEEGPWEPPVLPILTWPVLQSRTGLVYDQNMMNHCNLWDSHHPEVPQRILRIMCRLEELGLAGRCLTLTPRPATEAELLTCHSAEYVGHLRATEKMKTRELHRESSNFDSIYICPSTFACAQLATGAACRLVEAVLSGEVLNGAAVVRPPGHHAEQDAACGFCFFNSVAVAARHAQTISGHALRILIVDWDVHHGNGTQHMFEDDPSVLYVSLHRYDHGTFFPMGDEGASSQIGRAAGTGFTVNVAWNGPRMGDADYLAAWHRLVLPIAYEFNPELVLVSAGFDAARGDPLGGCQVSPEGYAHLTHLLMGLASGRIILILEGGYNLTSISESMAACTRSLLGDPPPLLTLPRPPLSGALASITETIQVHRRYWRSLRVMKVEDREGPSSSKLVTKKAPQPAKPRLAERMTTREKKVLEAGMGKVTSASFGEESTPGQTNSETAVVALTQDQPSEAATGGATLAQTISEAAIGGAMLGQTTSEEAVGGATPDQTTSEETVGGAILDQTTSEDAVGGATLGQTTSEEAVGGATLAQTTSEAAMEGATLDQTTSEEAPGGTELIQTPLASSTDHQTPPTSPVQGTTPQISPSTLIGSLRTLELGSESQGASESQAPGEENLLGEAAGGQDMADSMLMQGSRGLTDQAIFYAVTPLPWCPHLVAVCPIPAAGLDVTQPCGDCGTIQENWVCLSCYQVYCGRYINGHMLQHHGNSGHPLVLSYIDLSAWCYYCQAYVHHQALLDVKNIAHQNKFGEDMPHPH
Experiment: HDAC enzyme activity inhibition assay (HDAC Fluorimetric Drug Discovery Kit), HDAC6
Format: biochemical
Conditions: HDAC1 vs HDAC6

# compound, HDAC6 selectivity (fold)
records = [
    ("CS(=O)(=O)N1CC(F)(C(=O)N(Cc2ccc(-c3nnc(C(F)F)o3)cc2F)c2ccccc2)C1", 378),
    ("O=C(N(Cc1ccc(-c2nnc(C(F)F)o2)cn1)c1cccc(F)c1)C1(F)CN(C2CCOC2)C1 (stereo not shown)", 854),
    ("CC(C)N1CC(F)(C(=O)N(Cc2ccc(-c3nnc(C(F)F)o3)cn2)c2cccc(F)c2)C1", 237),
    ("CN1CC(N2CCC(F)(C(=O)N(Cc3ccc(-c4nnc(C(F)F)o4)cn3)c3cccc(F)c3)CC2)C1", 885),
]
